# assay.system: Grb2 SH2 (UniProt P62993)
# Sequence (P62993 whole entry, looked up): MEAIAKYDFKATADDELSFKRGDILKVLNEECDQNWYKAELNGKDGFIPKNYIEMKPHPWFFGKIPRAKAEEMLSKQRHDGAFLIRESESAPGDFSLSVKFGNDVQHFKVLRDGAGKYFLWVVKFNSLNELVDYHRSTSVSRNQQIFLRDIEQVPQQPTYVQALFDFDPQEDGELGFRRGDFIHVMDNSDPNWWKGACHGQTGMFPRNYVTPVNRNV
# assay.procedure: SH2 binding enrichment of the phosphorylated peptide, bacterial display (enrichment ratio); higher = better substrate or ligand; peptides without Tyr show the background
quantity: SH2 binding enrichment
Respond using a number only.

Past entries and their recorded results:
seq: HNLDFYKQTTN [FGFR3_Y648_K650Q_YF]
observed: 0.874

seq: TSHKGYVAFLE [CARD9_Y76_G72S]
observed: 0.877

# input for lookup
In: Given the sequence RFLRGYRQYAY [HLA-A_Y137_D140Y] , what is its reported SH2 binding enrichment?
Out: 0.92

====

# assay.system: Fyn (UniProt P06241)
# Sequence (P06241 whole entry, looked up): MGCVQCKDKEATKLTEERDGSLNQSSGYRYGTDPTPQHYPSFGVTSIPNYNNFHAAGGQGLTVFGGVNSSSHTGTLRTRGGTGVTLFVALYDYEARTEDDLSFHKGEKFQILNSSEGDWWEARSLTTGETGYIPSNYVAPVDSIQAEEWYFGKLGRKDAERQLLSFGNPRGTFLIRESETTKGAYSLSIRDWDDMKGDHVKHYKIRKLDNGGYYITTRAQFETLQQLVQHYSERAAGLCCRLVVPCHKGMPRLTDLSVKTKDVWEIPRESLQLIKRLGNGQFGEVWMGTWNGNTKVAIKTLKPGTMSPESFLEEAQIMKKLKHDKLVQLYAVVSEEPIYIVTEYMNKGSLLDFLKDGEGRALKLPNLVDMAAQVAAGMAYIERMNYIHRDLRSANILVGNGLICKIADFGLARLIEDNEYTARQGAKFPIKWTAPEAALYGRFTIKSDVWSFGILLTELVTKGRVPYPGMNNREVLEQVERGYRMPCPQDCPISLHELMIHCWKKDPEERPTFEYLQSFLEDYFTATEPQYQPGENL
# assay.procedure: phosphorylation enrichment, bacterial display (enrichment ratio); higher = better substrate or ligand; peptides without Tyr show the background
Kindly return label 1 if reported phosphorylation enrichment is no lower than 0.5; return label 0 if it is lower.

seq: EPVSDYINANI [PTPN11_Y304]
assigned.category: label 0

seq: PIAPVYAASMV [ACAT1_Y331]
assigned.category: label 1

seq: NFATLYLKIFH [PDE6B_Y219_YF]
assigned.category: label 0

In: Threshold query (phosphorylation enrichment >= 0.5) on DDKQPYEKKAE [HMGB1_Y144_A149E]
Out: label 1

In: Now consider QGQHWYSSSDK [CASP10_Y9] and answer again.
Out: label 1

In: Now consider APTSGYQEFVH [IL4R_Y575] and answer again.
Out: label 1

In: Now consider HQNGTYGLHQD [SGSH_Y89_M88T] and answer again.
Out: label 1

In: Now consider FAKTQYPDVFA [CRX_Y63_YF] and answer again.
Out: label 0

In: Now consider QELRRYLESGV [MICA_Y194_K196E] and answer again.
Out: label 1

In: Now consider YGSSSSGGAGG [RPA2_Y14_Y14S] and answer again.
Out: label 0

In: Now consider NTVDYYDLYGG [PTPN11_Y63_G60V] and answer again.
Out: label 1

In: Now consider PDGREYIFVDP [PDGFRA_Y572_H570R_YF] and answer again.
Out: label 1

In: Now consider TPLSAYQIPRT [GAB2_Y324] and answer again.
Out: label 0

In: Now consider KKHIPYRQHKS [CSNK1G2_Y206_E208Q] and answer again.
Out: label 1

In: Now consider KVMANYMYKAG [MAML2_Y513] and answer again.
Out: label 0

In: Now consider TDKLFYIYTPG [SLC27A4_Y243_S247P] and answer again.
Out: label 0

In: Now consider LRYDSYWSYCN [SLC20A2_Y433_S434W] and answer again.
Out: label 1

In: Now consider PSDSGYSYETI [MAP1B_Y1921] and answer again.
Out: label 1

In: Now consider SHMVNYQPFRK [TEX37_Y25_D24N_YF] and answer again.
Out: label 0
